# Ki per entry
# Tested target: Adrenergic receptor alpha-2 (Rattus norvegicus, UniProt P22086+P19328+P22909)
# Sequence (P22086 whole entry): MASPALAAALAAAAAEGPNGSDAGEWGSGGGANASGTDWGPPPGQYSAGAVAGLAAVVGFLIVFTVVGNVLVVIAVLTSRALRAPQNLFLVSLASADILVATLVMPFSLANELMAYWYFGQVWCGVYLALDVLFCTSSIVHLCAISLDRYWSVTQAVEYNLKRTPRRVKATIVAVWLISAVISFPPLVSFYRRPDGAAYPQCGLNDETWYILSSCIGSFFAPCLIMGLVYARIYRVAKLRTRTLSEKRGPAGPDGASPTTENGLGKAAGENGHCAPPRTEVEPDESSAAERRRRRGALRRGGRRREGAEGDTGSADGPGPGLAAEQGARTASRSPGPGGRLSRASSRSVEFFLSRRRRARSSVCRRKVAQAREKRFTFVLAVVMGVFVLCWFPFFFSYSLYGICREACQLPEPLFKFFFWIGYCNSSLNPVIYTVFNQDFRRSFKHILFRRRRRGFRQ
# Sequence (P19328 whole entry): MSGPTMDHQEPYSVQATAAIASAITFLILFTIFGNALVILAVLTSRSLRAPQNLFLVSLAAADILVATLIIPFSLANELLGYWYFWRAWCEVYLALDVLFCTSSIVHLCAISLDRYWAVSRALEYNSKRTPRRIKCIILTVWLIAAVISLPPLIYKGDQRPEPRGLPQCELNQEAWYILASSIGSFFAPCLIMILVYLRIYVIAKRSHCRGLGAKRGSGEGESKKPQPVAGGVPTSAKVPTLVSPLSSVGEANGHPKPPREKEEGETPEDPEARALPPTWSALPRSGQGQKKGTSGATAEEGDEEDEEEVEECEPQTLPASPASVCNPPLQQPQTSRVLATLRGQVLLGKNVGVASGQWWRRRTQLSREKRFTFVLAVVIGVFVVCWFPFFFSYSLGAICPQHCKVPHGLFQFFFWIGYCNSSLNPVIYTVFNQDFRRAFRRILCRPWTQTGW
# Sequence (P22909 whole entry): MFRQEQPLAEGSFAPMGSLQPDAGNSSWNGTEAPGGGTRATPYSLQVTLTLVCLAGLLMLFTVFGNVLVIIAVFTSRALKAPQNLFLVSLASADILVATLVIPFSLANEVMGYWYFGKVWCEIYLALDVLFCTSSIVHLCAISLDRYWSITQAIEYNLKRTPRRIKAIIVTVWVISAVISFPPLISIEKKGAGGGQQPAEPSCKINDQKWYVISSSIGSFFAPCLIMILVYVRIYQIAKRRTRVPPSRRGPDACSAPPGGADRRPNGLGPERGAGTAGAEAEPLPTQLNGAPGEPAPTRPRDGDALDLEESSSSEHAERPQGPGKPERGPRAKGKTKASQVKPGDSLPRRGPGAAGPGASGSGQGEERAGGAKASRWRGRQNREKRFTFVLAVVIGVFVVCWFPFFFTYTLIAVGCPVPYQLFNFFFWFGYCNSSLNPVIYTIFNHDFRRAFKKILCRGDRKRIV
# Procedure summary: In vitro binding affinity at Alpha-2 adrenergic receptor in rat cortex by radioligand binding assay using [3H]rauwolscine
A number alone suffices; assume nM.

Worked cases, answers included:
c1ccc([C@H]2CCN(C[C@H]3CCCc4c3ccc3c4OCO3)C2)cc1: 4.56
c1ccc([C@@H]2CCN(C[C@H]3CCCc4c3ccc3c4OCO3)C2)cc1: 2.08
CN(C)CCCN1c2ccccc2CCc2ccccc21: 255
c1ccc([C@H]2CCN(C[C@@H]3CCCc4c3ccc3c4OCO3)C2)cc1: 0.428
c1ccc([C@@H]2CCN(C[C@@H]3CCCc4c3ccc3c4OCO3)C2)cc1: 0.5

Query Ki for c1ccc(C2CCN(CC3CCCc4c3ccc3c4OCO3)C2)cc1 (stereo in doubt; 6a/b)
0.708

Query Ki for c1ccc(C2CCN(CC3CCCc4c3ccc3c4OCO3)C2)cc1 (stereo in doubt; 1a/b)
1.23
